biological target: Pro-neuregulin-1, membrane-bound isoform (Homo sapiens); assay: small molecules binding neuregulin-1 protein – biochemical, small-molecule microarray, fluorescence 635/667, psychiatric disease protein project, primary screen (AID 1075); settings: NRG1 binding, 635 nm fluorescence, higher = more signal;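 also: score combines 667 nm spot fluorescence with signal to noise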
readout_name: composite z-score

// query Given C[C@@]1([C@@H](NC(=O)c2cccs2)c2ccc(-c3ccccc3)cc2)C[C@H]1C1CCCCC1 , state its recorded composite z-score.
// result 0.783

// query Which value of composite z-score has been reported for C[N+](C)(C)CCCC[C@@H]1NC(=O)[C@@H]2C[C@H](C(=O)NCCCCCNC(=O)CS)[C@H](c3cccc(OCCO)c3)N2C1=O in the records?
// result 0.634

// query Can you look up the measured composite z-score of O=C(C=C(CC(O)c1cccc(Cl)c1)OCCF)OCCF (centres undefined) for me?
// result -0.0066

// query Can you look up the measured composite z-score of COc1ccccc1CN1C(=O)c2ccccc2[C@@H](C(=O)NCC(C)C)[C@@H]1c1ccc(CO)cc1 for me?
// result 0.869

----------
system: Sam68 (KHDRBS1); assay: compounds binding KHDRBS1 protein – biochemical, small-molecule microarray, 635 nm fluorescence, primary screen (AID 1125); details: higher = more signal;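 also: score merges 667 nm channel intensity with signal to noise over triplicate slides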
readout_name: composite z-score
Note: the reply should be a number with no unit written.

// query Data request, read-out composite z-score, for COC(=O)[C@@]1(Cc2ccccc2)[C@H]2c3cc(C(=O)N4CCCC4)n(Cc4ccccc4)c3C[C@H]2CN1C(=O)c1ccccc1
// result 0.5

// query Need composite z-score of COCCCNC(=O)[C@]1(Cc2ccccc2)N=C(c2ccc(OCCCO)cc2)O[C@@H]1c1ccccc1N=[N+]=[N-] , thanks.
// result 1.29

// query Which measured composite z-score value corresponds to CC(C)(C)OC(=O)CC[C@@]1(C(=O)N2CCCCC2)N=C(c2ccc(OCCCO)cc2)O[C@@H]1c1ccccc1N=[N+]=[N-] ?
// result 1.29

// query Can you share its composite z-score? I mean this molecule: C=C(COC)C(=O)CC[C@H](OC(=O)c1ccccc1-c1ccccc1C(=O)O)c1ccc(OCCO)cc1
// result 1.09

// query Recorded composite z-score of O=C1N(CCS(=O)(=O)c2ccccc2)Cc2ccccc2C[C@@]12COC(c1ccc(OCCCO)cc1)=N2 , please.
// result 1.32

// query Look up composite z-score: COc1ccccc1CN1C(=O)c2ccccc2[C@](Cc2ccccc2I)(C(=O)NCCN2CCOCC2)[C@@H]1c1ccc(CO)cc1
// result 1.29

// query So what does the record say about composite z-score for C=CCOC(=O)[C@@H]1[C@H]2C(=O)O[C@H](c3ccccc3)[C@H](c3ccccc3)N2[C@H](c2ccc(OCCOC(=O)[C@H]3C[C@H]4C(=O)N[C@@H](Cc5ccccc5)C(=O)N4[C@H]3c3cccc(OCCO)c3)cc2)[C@@]12C(=O)Nc1ccc(I)cc12 ?
// result 1.31

// query May I ask what composite z-score has been recorded for C=C(/C(=C/C[C@@H](OC(=O)c1ccncc1)c1ccccc1OCCO)c1cnc2ccccc2c1)C(C)C ?
// result 1.3

// query Quick one: composite z-score for COC(=O)[C@@]1(Cc2ccc(OC)cc2)[C@H]2c3cc(C(=O)N4CCCC4)n(CCF)c3C[C@H]2CN1C(=O)c1ccccc1 ?
// result 0.757

// query // returns reported composite z-score for input CCCCC(CC)C(O)C1C=CC2C(=O)NC(=O)C2N1Nc1ccccn1 (centres undefined)
// result 1.27

// query Please give the measured composite z-score for this molecule: COC(=O)C(CC#Cc1ccc2c(c1)[C@]1(C(=O)N2)[C@H](C(=O)N2CCc3cc(OC)c(OC)cc3C2)[C@H]2C(=O)O[C@H](c3ccccc3)[C@H](c3ccccc3)N2[C@@H]1c1ccc(O)cc1)C(=O)OC
// result 1.29

// query What value of measured composite z-score is listed for C[N+](C)(C)CCCCNC(=O)[C@H]1C[C@H]2C(=O)NCC(=O)N2[C@H]1c1ccc(O)cc1 ?
// result 0.852

// query Quick one: composite z-score of O=C1c2ccccc2[C@](Cc2ccccc2I)(C(=O)NC2CC2)[C@H](c2ccc(CO)cc2)N1Cc1ccccc1Cl ?
// result 1.31

// query Any idea what its composite z-score is? The molecule is CCCCC(=C=CC[C@H](O)c1cccc(OCCO)c1)C[C@H](O)COCc1ccccc1
// result 0.435

----------
assay: probe aLefty1 binding on compound microarray – biochemical, small-molecule microarray, 635/667 nm fluorescence, primary screen (AID 1153); conditions: higher = more signal;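 also: score merges spot fluorescence with signal-to-noise ratio from the scanned slide images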
composite z-score vs 0.03: at or above is Condition met, below is Condition not met.

// query Please indicate if the recorded composite z-score for CCCCCCCCCCC(O)C1C=CC2C(=O)NC(=O)C2N1Nc1ccccn1 (stereo unspecified) meets or exceeds 0.03.
// result Condition met

// query Given COc1ccc([Si](C)(C)[C@H]2[C@H](CC(=O)N3CCC[C@H]3CO)O[C@@]3(C(=O)N(Cc4ccc(N5C(=O)c6cccc7cccc5c67)cc4)c4ccccc43)[C@@H]2C)cc1 , state whether its composite z-score is at least 0.03.
// result Condition met

// query Is composite z-score at least 0.03? Consider CCCCC(CC)C(O)C1C=CC2C(=O)NC(=O)C2N1Nc1ccccn1 (stereo unspecified)
// result Condition not met

// query API: above_or_equal(metric=composite z-score, cutoff=0.03) for item CN1C(=O)C2C=CC(C(O)c3ccc(F)cc3)N(N3CCCCC3)C2C1=O (stereo unspecified)
// result Condition met

// query Is the recorded value of composite z-score equal to or greater than 0.03 for this compound? O=C(O)[C@@]1(Cc2ccccc2)COC(c2ccc(OCCCO)cc2)=N1
// result Condition not met

// query Kindly determine if composite z-score recorded for CC(C)C(CO)N1C(=O)[C@@H]2[C@H]3C(=O)OCC=C[C@H]3OC23C=CCN(CCN2CCOCC2)C(=O)[C@@H]13 (stereo partly specified) is above or exactly 0.03.
// result Condition not met

----------
system: Inhibin beta A chain (activin A); test: small molecules binding activin A – biochemical, small-molecule microarray, 635 nm fluorescence scan, primary screen (AID 1107); settings: INHBA, higher = more signal;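 also: mouse activin A protein probed at 4.33 µg/mL on printed slides; score merges bound-protein fluorescence near 667 nm with spot signal-to-noise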
For each entry below, report its composite z-score value.
Number, no unit, nothing else.

// query Sample C[N+](C)(C)CCCCCCNC(=O)[C@@H]1C[C@@H]2C(=O)NCC(=O)N2[C@@H]1c1ccc(O)cc1 — what was its composite z-score?
// result 0.277

// query Reported composite z-score for NC(=O)[C@H]1[C@@H]2C(=O)O[C@@H](c3ccccc3)[C@@H](c3ccccc3)N2[C@@H](c2ccc(O)cc2)[C@]12C(=O)Nc1ccc(C#CC3(O)CCCCCC3)cc12 : what is it?
// result 0.593

// query Form field: reported composite z-score of CCOC(=O)C[C@H]1[C@H](OC(=O)Cc2ccc3c(c2)OCO3)[C@@H](NC(=O)c2ccccc2)c2cc(OCCCO)ccc2N1C(=O)c1ccccc1
// result 0.524

// query Requested read-out: composite z-score. Entry: CCN(CC)c1ccc(N2CC=CC34O[C@@H]5/C=C\CCCOC(=O)C5[C@H]3C(=O)N(CCCCCO)[C@@H]4C2=O)cc1 (some centres not stated)
// result -0.399

// query Item OCc1ccc(-c2cc[n+](Cc3cccc(OC(F)(F)F)c3)cc2)cc1 has what recorded composite z-score?
// result 1.93

// query So what does the record say about composite z-score for C=CC[C@]1(C(=O)NCC(O)CO)N=C(c2ccc(OCCCO)cc2)O[C@H]1c1ccccc1N=[N+]=[N-] (some centres not stated) ?
// result 1.42

// query Need composite z-score of CC(C)N1CC=CC23O[C@@H]4C=CCOC(=O)[C@@H]4[C@H]2C(=O)N(CCCCCCO)[C@@H]3C1=O (some centres not stated) , thanks.
// result 0.741

----------
test: probe aNog binding to arrayed compounds – biochemical, biotinylated probe, 635/667 nm fluorescence, primary screen (AID 1115); conditions: small-molecule microarray, higher = more signal;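 also: probe is biotinylated aNog protein used at 0.15 µg/mL for 1 h at 4 C; z-score combines 667 nm fluorescence of each spot with its signal to noise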
readout_name: composite z-score

// query Need composite z-score, item CN1C(=O)C2C=CC(C(O)c3ccc(F)cc3)N(N3CCCCC3)C2C1=O (stereo not given)
// result 0.893

// query If you can, please state the reported composite z-score value of NC(=O)NCC#Cc1ccc2c(c1)[C@]1(C(=O)N2)[C@H](c2ccc(O)cc2)N2[C@H](c3ccccc3)[C@H](c3ccccc3)OC(=O)[C@H]2[C@@H]1C(N)=O .
// result 0.218

// query Can you share its composite z-score? I mean this compound: C[N+](C)(C)CCCCCCNC(=O)[C@@H]1C[C@@H]2C(=O)NCC(=O)N2[C@@H]1c1ccc(O)cc1
// result -0.196

// query # composite z-score lookup, item O=C1NC(=O)C2C1C=CC(C(O)CCc1ccccc1)N2Nc1ccccn1 (stereo not given)
// result -0.279

// query Bench note: what composite z-score did CC(C)C[C@H]1NC(=O)[C@H](C)NC(=O)[C@@]23C(=O)N[C@@H](Cc4ccccc4)C2[C@H](C)[C@@]2(C)O[C@H]2C3/C=C/C/C=C\CNC1=O (stereo not given in full) show?
// result 0.202

// query Entry C=CCOC(=O)[C@@H]1[C@H]2C(=O)O[C@H](c3ccccc3)[C@H](c3ccccc3)N2[C@H](c2ccc(OCCOC(=O)[C@H]3C[C@H]4C(=O)N[C@@H](Cc5ccccc5)C(=O)N4[C@H]3c3cccc(OCCO)c3)cc2)[C@@]12C(=O)Nc1ccc(I)cc12 has what composite z-score?
// result 0.749

// query Consider the compound CN1C(=O)C2C=CC(C(O)C3CCCCC3)N(N(c3ccccc3)c3ccccc3)C2C1=O (stereo not given) and give its measured composite z-score.
// result 0.0294

// query # query: composite z-score of entry Cc1ccc(N2C(=O)c3ccccc3[C@](C)(C(=O)NC(C)C)[C@@H]2c2ccc(CO)cc2)nc1
// result -0.441

// query Name the recorded composite z-score for CC1C=C(CCCO)C=C(C(=O)OCCS(C)(=O)=O)C(C(=O)OCCS(C)(=O)=O)=CN1Cc1cccc(OC(F)(F)F)c1 (stereo not given) .
// result 1.27

// query For the compound shown here, NCCCCCCNC(=O)[C@H]1C[C@H]2C(=O)N3CCC[C@H]3C(=O)N2[C@H]1c1ccc(O)cc1 , give the reported composite z-score.
// result -0.28

// query I am curious: what composite z-score value has been reported for C=C[C@H](C)[C@H](OC(=O)Nc1ccc(SC)cc1)c1ccc(O)c2ccccc12 ?
// result -0.383

// query So what's the measured composite z-score for this one? N#Cc1ccc(NN2C(C(O)c3ccccc3)C=CC3C(=O)N(c4ccccc4)C(=O)C32)cc1 (stereo not given)
// result 0.642

// query Fill in: composite z-score of CCN(CC)c1ccc(N2CC=CC34O[C@@H]5/C=C\CCCOC(=O)C5[C@H]3C(=O)N(CCCCCO)[C@@H]4C2=O)cc1 (stereo not given in full) is ___
// result -0.254

// query Name the reported composite z-score value associated with the compound CCCC=C(CCC)[C@@H](NS(=O)(=O)c1ccccc1)c1ccc(C(F)(F)F)cc1
// result -0.475

// query Which composite z-score is listed for CN(C)C(=O)[C@]1(Cc2ccccc2N=[N+]=[N-])N=C(c2ccc(OCCCO)cc2)O[C@@H]1c1ccccc1CN=[N+]=[N-] ?
// result -0.488
